test: chemical genetic growth profiling, strain panel (AID 1159580);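 note: tested at 20 µM; growth read once vehicle control cultures reached saturation at 30 °C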; conditions: S. cerevisiae deletion strains, growth OD, locus YOR061W, strain CKA2
Out of some 5,500 compounds screened, about 2,000 (36%) were called active. About 18% were inconclusive and are not listed. Cut-off read from the data, not from the text of the source: active = normalized growth mostly below about 0.91 (no sharp cut-off); inconclusive = no clear call, values can overlap the other calls; inactive = mostly above about 0.92. Some of the results follow.
API: response.call in active, inactive

Any idea what this test logged for N=c1ccc2nc3c(Cl)c4c(c(Cl)c3oc-2c1S(=O)(=O)O)Nc1ccc(N)c(S(=O)(=O)O)c1O4 ?
inactive

Any idea what this test logged for COc1cccc(-c2cc(=O)c3ccc(OC)cc3o2)c1 ?
inactive

Any idea what this test logged for O=C(CSCc1nc(-c2ccc(Cl)cc2)cs1)N/N=C\c1cccs1 ?
inactive

Any idea what this test logged for CCCCCCc1ccc(O)cc1O ?
inactive

Any idea what this test logged for O=C(NNC(=O)c1csc(-c2cccs2)n1)c1ccc(C(F)(F)F)cc1 ?
inactive

Any idea what this test logged for CCC1C2CC3C4N(C)c5ccccc5C45CC(C2C5OC(C)=O)N3C1OC(C)=O (stereo not drawn) ?
inactive

Any idea what this test logged for CC(=O)O.CC(=O)O.[Cd] ?
active

Any idea what this test logged for Clc1ccc(Cl)cc1 ?
inactive

Any idea what this test logged for COc1cc([C@@H]2c3cc4c(cc3[C@H](O)[C@H]3COC(=O)[C@@H]23)OCO4)cc(OC)c1OC ?
inactive

Any idea what this test logged for Clc1ccc(-c2csc(Nc3ccccc3)n2)s1 ?
active

Any idea what this test logged for C[N+]1(CCCCC[N+]2(C)CCCC2)CCCC1 ?
inactive

Any idea what this test logged for CC(C)=CCc1c2c(c(O)c3c(=O)c(O)c(-c4ccccc4)oc13)C=CC(C)(C)O2 ?
active

Any idea what this test logged for CN(C(=O)N(C)c1ccc(Cl)cc1C(=O)c1ccccc1Cl)c1ccc(Cl)cc1C(=O)c1ccccc1Cl ?
active

Any idea what this test logged for CCCCCCCCCc1ccc(O)cc1 ?
active

Any idea what this test logged for COC(=O)C[C@H]1C(C)(C)C(=O)[C@@H]2CC3=C4CC(OC)O[C@@H](c5ccoc5)[C@]4(C)CCC3[C@@]1(C)C2=O (stereo partly drawn) ?
inactive

Any idea what this test logged for NCCc1ccc(O)cc1 ?
inactive

Any idea what this test logged for CN(C)CCC=C1c2ccccc2CCc2ccccc21 ?
inactive

Any idea what this test logged for CC(C)[C@]12O[C@H]1[C@@H]1O[C@@]13[C@@]1(C)CCC4=C(COC4=O)[C@@H]1C[C@@H]1O[C@@]13C2=O ?
inactive

Any idea what this test logged for ClC(Cl)=C(c1ccc(Cl)cc1)c1ccc(Cl)cc1 ?
inactive

Any idea what this test logged for CN(C)CCC=C1c2ccccc2C=Cc2ccccc21 ?
inactive

Any idea what this test logged for Cc1csc2ncnc(N/N=C\c3ccccc3Cl)c12 ?
inactive

Any idea what this test logged for CC1=C2C(=CO[C@H](C)[C@H]2C)C(=O)C(C(=O)O)=C1O ?
inactive

Any idea what this test logged for CN(C)CC/C=C1/c2ccccc2COc2ccccc21 ?
inactive

----------
assay: chemical genetic growth profiling, strain panel (AID 1159580);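 note: tested at 20 µM; growth read once vehicle control cultures reached saturation at 30 °C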; conditions: S. cerevisiae deletion strains, growth OD, locus YPL055C, strain LGE1, stronger effect = lower value
The whole screen tested about 5,500 compounds, of which about 2,000 (36%) were called active. Roughly 18% stayed inconclusive and do not appear here. This is one part of the list.
normalized growth strictly less than 0.8 = Condition met. Otherwise Condition not met.

normalized growth under 0.8? Item: O=C(Nc1ccccc1SCc1cccc(C(F)(F)F)c1)c1c(F)cccc1Cl
Condition not met

normalized growth under 0.8? Item: O=C1CC[C@]23C=CC(=O)NCCCCNCCCNC(=O)/C=C/c4ccc(c2c4)O[C@@H]3C1
Condition not met

normalized growth under 0.8? Item: CN1CCN2c3ccccc3Cc3ccccc3C2C1 (stereo not drawn)
Condition not met

normalized growth under 0.8? Item: COc1ccc2cc3[n+](cc2c1OC)CCc1cc2c(cc1-3)OCO2
Condition met

normalized growth under 0.8? Item: COc1c(O)cc2c(-c3ccccc3)cc(=O)oc2c1OC
Condition not met

normalized growth under 0.8? Item: Clc1cccc(-c2csc(Nc3cccnc3)n2)c1
Condition not met

normalized growth under 0.8? Item: CC(=O)Oc1cc(-c2coc3cc(OC(C)=O)c(OC(C)=O)c(OC(C)=O)c3c2=O)cc(OC(C)=O)c1OC(C)=O
Condition met

normalized growth under 0.8? Item: O=C1NC(c2ccccc2Cl)Nc2ccccc21 (stereo not drawn)
Condition not met

normalized growth under 0.8? Item: COc1cc2cc[n+]3cc4c(OC)c(OC)ccc4cc3c2cc1OC
Condition not met

normalized growth under 0.8? Item: COc1ccc2c(c1OC)C(=O)O[C@@H]2[C@H]1c2c(cc3c(c2OC)OCO3)CCN1C
Condition not met

normalized growth under 0.8? Item: COc1ccc(-c2cc(=O)c3c(OC(C)=O)cc(OC(C)=O)cc3o2)cc1
Condition not met

normalized growth under 0.8? Item: c1ccc(Sc2c(-c3ccccc3)nc3ccccn23)cc1
Condition met

normalized growth under 0.8? Item: Clc1ccc(-c2csc(-c3ccno3)n2)s1
Condition not met

normalized growth under 0.8? Item: C=CCn1c(Sc2ncc([N+](=O)[O-])s2)n[nH]c1=O
Condition not met

normalized growth under 0.8? Item: COc1ccc(-c2cc(=O)c3cc(OC)ccc3o2)cc1
Condition not met

normalized growth under 0.8? Item: COC(=O)C1=C(C)NC(C)=C(C(=O)OC)C1c1ccccc1[N+](=O)[O-]
Condition met

normalized growth under 0.8? Item: O=c1c2ccccc2[se]n1-c1ccccc1
Condition met

normalized growth under 0.8? Item: CCCN1C[C@H](CSC)C[C@@H]2c3cccc4[nH]cc(c34)C[C@H]21
Condition not met

normalized growth under 0.8? Item: CC(=O)[C@H]1CCC2C3CC=C4C[C@@H](O)CC[C@]4(C)C3CC[C@@]21C (stereo partly drawn)
Condition not met

normalized growth under 0.8? Item: Nc1nc(N)c2nc(-c3ccccc3)c(N)nc2n1
Condition not met

normalized growth under 0.8? Item: NCC(=O)CCC(=O)O
Condition not met

normalized growth under 0.8? Item: O=C(/C=C/c1ccccc1)c1ccc(O)cc1
Condition met

Reference source for all entries: PubChem BioAssay AID1159580
